Cited source: patent US10301272B2

In this section we review reported pIC50 (FF) values for a set of compounds.
# measured_on: RORγ (Homo sapiens, UniProt P51449)
# Sequence (P51449 whole entry, looked up, the tested form may be a part): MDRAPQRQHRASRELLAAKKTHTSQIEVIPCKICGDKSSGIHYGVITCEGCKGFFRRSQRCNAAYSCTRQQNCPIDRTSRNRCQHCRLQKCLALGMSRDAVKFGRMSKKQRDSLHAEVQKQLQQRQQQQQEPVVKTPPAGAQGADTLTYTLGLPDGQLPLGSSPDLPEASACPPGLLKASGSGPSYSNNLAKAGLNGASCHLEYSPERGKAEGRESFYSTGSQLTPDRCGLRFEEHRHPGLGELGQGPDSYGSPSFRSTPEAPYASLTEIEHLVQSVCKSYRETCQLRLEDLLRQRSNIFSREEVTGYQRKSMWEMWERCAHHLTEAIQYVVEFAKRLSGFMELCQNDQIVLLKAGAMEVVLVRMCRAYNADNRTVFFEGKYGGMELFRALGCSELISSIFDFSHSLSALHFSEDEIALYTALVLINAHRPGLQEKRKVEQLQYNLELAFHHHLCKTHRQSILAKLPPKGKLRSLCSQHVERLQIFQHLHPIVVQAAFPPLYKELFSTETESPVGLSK
# test_description: RORγ Gal4 Reporter Gene Assay
# Assay type: cell-based

Examples with answers:
[[record]]
test_smiles = "COCC(C)(C)NS(=O)(=O)c1ccc(-c2sc(C(=O)N3CC4(CCS(=O)(=O)CC4)C3)nc2CC2CCCCC2)c2ccccc12"
readout_value = "6.5/7.4/7.4"

[[record]]
test_smiles = "CC(C)(C)NS(=O)(=O)c1ccc(-c2sc(C(=O)N[C@H]3C[C@H](C(=O)O)C3)nc2CC2CCCCC2)c(F)c1OC(F)(F)F"
readout_value = "6.7/8.4/8.5"


stdin: Kindly indicate its recorded pIC50 (FF). Item: `Cc1c(S(=O)(=O)NC(C)(C)C)ccc(-c2sc(C(=O)N[C@H]3C[C@H](C(=O)O)C3)nc2CC2CCCCC2)c1C(F)(F)F`
stdout: 5.8/8.5/8.7
